The reported numbers originate from the supplement of paper PMC6757056.

// reported normalized RNA/DNA level with ligand (log10) per item
B1: library; a variant is named by its letters at N, in order (parent)
chain: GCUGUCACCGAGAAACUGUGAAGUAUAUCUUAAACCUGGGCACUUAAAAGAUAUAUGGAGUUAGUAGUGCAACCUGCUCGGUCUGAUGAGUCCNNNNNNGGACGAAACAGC

Variants of: B1
Assay: normalized RNA/DNA level with ligand (relative to sTRSVctl = 100) (log10 (% of sTRSVctl)); HEK293T; ligand: cyclic di-GMP (c-di-GMP-II aptamer); ligand concentration (+) RNA-Seq: 1 mM; higher = less ribozyme self-cleavage, higher mRNA level
Conditions: reporter: mCherry (pCS4076), ligand present: yes
property_name: normalized RNA/DNA level with ligand (log10)

1. GCUGUCACCGAGAAACUGUGAAGUAUAUCUUAAACCUGGGCACUUAAAAGAUAUAUGGAGUUAGUAGUGCAACCUGCUCGGUCUGAUGAGUCCAAAGCAGGACGAAACAGC [AAAGCA] ... 1.77
2. GCUGUCACCGAGAAACUGUGAAGUAUAUCUUAAACCUGGGCACUUAAAAGAUAUAUGGAGUUAGUAGUGCAACCUGCUCGGUCUGAUGAGUCCUCAAGCGGACGAAACAGC [UCAAGC] ... 1.76
3. GCUGUCACCGAGAAACUGUGAAGUAUAUCUUAAACCUGGGCACUUAAAAGAUAUAUGGAGUUAGUAGUGCAACCUGCUCGGUCUGAUGAGUCCCCUCAAGGACGAAACAGC [CCUCAA] ... 1.67
4. GCUGUCACCGAGAAACUGUGAAGUAUAUCUUAAACCUGGGCACUUAAAAGAUAUAUGGAGUUAGUAGUGCAACCUGCUCGGUCUGAUGAGUCCACUAUAGGACGAAACAGC [ACUAUA] ... 1.72
5. GCUGUCACCGAGAAACUGUGAAGUAUAUCUUAAACCUGGGCACUUAAAAGAUAUAUGGAGUUAGUAGUGCAACCUGCUCGGUCUGAUGAGUCCACCUCCGGACGAAACAGC [ACCUCC] ... 1.86
6. GCUGUCACCGAGAAACUGUGAAGUAUAUCUUAAACCUGGGCACUUAAAAGAUAUAUGGAGUUAGUAGUGCAACCUGCUCGGUCUGAUGAGUCCCACUUCGGACGAAACAGC [CACUUC] ... 1.83
7. GCUGUCACCGAGAAACUGUGAAGUAUAUCUUAAACCUGGGCACUUAAAAGAUAUAUGGAGUUAGUAGUGCAACCUGCUCGGUCUGAUGAGUCCGUACCGGGACGAAACAGC [GUACCG] ... 1.84
8. GCUGUCACCGAGAAACUGUGAAGUAUAUCUUAAACCUGGGCACUUAAAAGAUAUAUGGAGUUAGUAGUGCAACCUGCUCGGUCUGAUGAGUCCCUUCCCGGACGAAACAGC [CUUCCC] ... 1.88
9. GCUGUCACCGAGAAACUGUGAAGUAUAUCUUAAACCUGGGCACUUAAAAGAUAUAUGGAGUUAGUAGUGCAACCUGCUCGGUCUGAUGAGUCCACUACUGGACGAAACAGC [ACUACU] ... 1.82
10. GCUGUCACCGAGAAACUGUGAAGUAUAUCUUAAACCUGGGCACUUAAAAGAUAUAUGGAGUUAGUAGUGCAACCUGCUCGGUCUGAUGAGUCCGCUGGAGGACGAAACAGC [GCUGGA] ... 1.71
11. GCUGUCACCGAGAAACUGUGAAGUAUAUCUUAAACCUGGGCACUUAAAAGAUAUAUGGAGUUAGUAGUGCAACCUGCUCGGUCUGAUGAGUCCAUGUCCGGACGAAACAGC [AUGUCC] ... 1.86
12. GCUGUCACCGAGAAACUGUGAAGUAUAUCUUAAACCUGGGCACUUAAAAGAUAUAUGGAGUUAGUAGUGCAACCUGCUCGGUCUGAUGAGUCCCUGGCAGGACGAAACAGC [CUGGCA] ... 1.73
13. GCUGUCACCGAGAAACUGUGAAGUAUAUCUUAAACCUGGGCACUUAAAAGAUAUAUGGAGUUAGUAGUGCAACCUGCUCGGUCUGAUGAGUCCAUAUCGGGACGAAACAGC [AUAUCG] ... 1.75
14. GCUGUCACCGAGAAACUGUGAAGUAUAUCUUAAACCUGGGCACUUAAAAGAUAUAUGGAGUUAGUAGUGCAACCUGCUCGGUCUGAUGAGUCCCCUUUAGGACGAAACAGC [CCUUUA] ... 1.64
15. GCUGUCACCGAGAAACUGUGAAGUAUAUCUUAAACCUGGGCACUUAAAAGAUAUAUGGAGUUAGUAGUGCAACCUGCUCGGUCUGAUGAGUCCUGUAAAGGACGAAACAGC [UGUAAA] ... 1.85
16. GCUGUCACCGAGAAACUGUGAAGUAUAUCUUAAACCUGGGCACUUAAAAGAUAUAUGGAGUUAGUAGUGCAACCUGCUCGGUCUGAUGAGUCCCCUUCCGGACGAAACAGC [CCUUCC] ... 1.87
17. GCUGUCACCGAGAAACUGUGAAGUAUAUCUUAAACCUGGGCACUUAAAAGAUAUAUGGAGUUAGUAGUGCAACCUGCUCGGUCUGAUGAGUCCCAUCAAGGACGAAACAGC [CAUCAA] ... 1.57
18. GCUGUCACCGAGAAACUGUGAAGUAUAUCUUAAACCUGGGCACUUAAAAGAUAUAUGGAGUUAGUAGUGCAACCUGCUCGGUCUGAUGAGUCCACGAAGGGACGAAACAGC [ACGAAG] ... 1.63
19. GCUGUCACCGAGAAACUGUGAAGUAUAUCUUAAACCUGGGCACUUAAAAGAUAUAUGGAGUUAGUAGUGCAACCUGCUCGGUCUGAUGAGUCCCUGUGUGGACGAAACAGC [CUGUGU] ... 1.86
20. GCUGUCACCGAGAAACUGUGAAGUAUAUCUUAAACCUGGGCACUUAAAAGAUAUAUGGAGUUAGUAGUGCAACCUGCUCGGUCUGAUGAGUCCCGCGAGGGACGAAACAGC [CGCGAG] ... 1.83
21. GCUGUCACCGAGAAACUGUGAAGUAUAUCUUAAACCUGGGCACUUAAAAGAUAUAUGGAGUUAGUAGUGCAACCUGCUCGGUCUGAUGAGUCCAGUGGUGGACGAAACAGC [AGUGGU] ... 1.76
22. GCUGUCACCGAGAAACUGUGAAGUAUAUCUUAAACCUGGGCACUUAAAAGAUAUAUGGAGUUAGUAGUGCAACCUGCUCGGUCUGAUGAGUCCCGGACAGGACGAAACAGC [CGGACA] ... 1.58
23. GCUGUCACCGAGAAACUGUGAAGUAUAUCUUAAACCUGGGCACUUAAAAGAUAUAUGGAGUUAGUAGUGCAACCUGCUCGGUCUGAUGAGUCCGAAUCAGGACGAAACAGC [GAAUCA] ... 1.82
24. GCUGUCACCGAGAAACUGUGAAGUAUAUCUUAAACCUGGGCACUUAAAAGAUAUAUGGAGUUAGUAGUGCAACCUGCUCGGUCUGAUGAGUCCUUGUCCGGACGAAACAGC [UUGUCC] ... 1.89
25. GCUGUCACCGAGAAACUGUGAAGUAUAUCUUAAACCUGGGCACUUAAAAGAUAUAUGGAGUUAGUAGUGCAACCUGCUCGGUCUGAUGAGUCCUUUAUAGGACGAAACAGC [UUUAUA] ... 1.84
26. GCUGUCACCGAGAAACUGUGAAGUAUAUCUUAAACCUGGGCACUUAAAAGAUAUAUGGAGUUAGUAGUGCAACCUGCUCGGUCUGAUGAGUCCGCACCCGGACGAAACAGC [GCACCC] ... 1.84
27. GCUGUCACCGAGAAACUGUGAAGUAUAUCUUAAACCUGGGCACUUAAAAGAUAUAUGGAGUUAGUAGUGCAACCUGCUCGGUCUGAUGAGUCCCCGCUUGGACGAAACAGC [CCGCUU] ... 1.79
28. GCUGUCACCGAGAAACUGUGAAGUAUAUCUUAAACCUGGGCACUUAAAAGAUAUAUGGAGUUAGUAGUGCAACCUGCUCGGUCUGAUGAGUCCACUGGAGGACGAAACAGC [ACUGGA] ... 1.59
29. GCUGUCACCGAGAAACUGUGAAGUAUAUCUUAAACCUGGGCACUUAAAAGAUAUAUGGAGUUAGUAGUGCAACCUGCUCGGUCUGAUGAGUCCACCAAAGGACGAAACAGC [ACCAAA] ... 1.71
30. GCUGUCACCGAGAAACUGUGAAGUAUAUCUUAAACCUGGGCACUUAAAAGAUAUAUGGAGUUAGUAGUGCAACCUGCUCGGUCUGAUGAGUCCAUUUAUGGACGAAACAGC [AUUUAU] ... 1.84
31. GCUGUCACCGAGAAACUGUGAAGUAUAUCUUAAACCUGGGCACUUAAAAGAUAUAUGGAGUUAGUAGUGCAACCUGCUCGGUCUGAUGAGUCCGGAAACGGACGAAACAGC [GGAAAC] ... 1.83
32. GCUGUCACCGAGAAACUGUGAAGUAUAUCUUAAACCUGGGCACUUAAAAGAUAUAUGGAGUUAGUAGUGCAACCUGCUCGGUCUGAUGAGUCCAUUAUCGGACGAAACAGC [AUUAUC] ... 1.84
33. GCUGUCACCGAGAAACUGUGAAGUAUAUCUUAAACCUGGGCACUUAAAAGAUAUAUGGAGUUAGUAGUGCAACCUGCUCGGUCUGAUGAGUCCGCCUAGGGACGAAACAGC [GCCUAG] ... 1.86
34. GCUGUCACCGAGAAACUGUGAAGUAUAUCUUAAACCUGGGCACUUAAAAGAUAUAUGGAGUUAGUAGUGCAACCUGCUCGGUCUGAUGAGUCCCAAGUAGGACGAAACAGC [CAAGUA] ... 1.63
35. GCUGUCACCGAGAAACUGUGAAGUAUAUCUUAAACCUGGGCACUUAAAAGAUAUAUGGAGUUAGUAGUGCAACCUGCUCGGUCUGAUGAGUCCGCCUUGGGACGAAACAGC [GCCUUG] ... 1.81
36. GCUGUCACCGAGAAACUGUGAAGUAUAUCUUAAACCUGGGCACUUAAAAGAUAUAUGGAGUUAGUAGUGCAACCUGCUCGGUCUGAUGAGUCCAGUACGGGACGAAACAGC [AGUACG] ... 1.74
37. GCUGUCACCGAGAAACUGUGAAGUAUAUCUUAAACCUGGGCACUUAAAAGAUAUAUGGAGUUAGUAGUGCAACCUGCUCGGUCUGAUGAGUCCCUCGUCGGACGAAACAGC [CUCGUC] ... 1.93
38. GCUGUCACCGAGAAACUGUGAAGUAUAUCUUAAACCUGGGCACUUAAAAGAUAUAUGGAGUUAGUAGUGCAACCUGCUCGGUCUGAUGAGUCCCGUCGCGGACGAAACAGC [CGUCGC] ... 1.87
39. GCUGUCACCGAGAAACUGUGAAGUAUAUCUUAAACCUGGGCACUUAAAAGAUAUAUGGAGUUAGUAGUGCAACCUGCUCGGUCUGAUGAGUCCAGACCAGGACGAAACAGC [AGACCA] ... 1.88
40. GCUGUCACCGAGAAACUGUGAAGUAUAUCUUAAACCUGGGCACUUAAAAGAUAUAUGGAGUUAGUAGUGCAACCUGCUCGGUCUGAUGAGUCCGAUGGGGGACGAAACAGC [GAUGGG] ... 1.67
41. GCUGUCACCGAGAAACUGUGAAGUAUAUCUUAAACCUGGGCACUUAAAAGAUAUAUGGAGUUAGUAGUGCAACCUGCUCGGUCUGAUGAGUCCCUUAGUGGACGAAACAGC [CUUAGU] ... 1.88
